experiment: NCI Yeast Anticancer Drug Screen. Data for the sgs1 mgt1 strain (AID 161);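 further: 0% = growth of cultures given vehicle only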; details: S. cerevisiae sgs1 mgt1 strain, at 50.0 µM
The panel holds about 79,000 compounds, 15% with a hit somewhere; the sample as a whole holds those more often. Active and inactive are the calls of the source. No stated cut-off is given here; in the data, active means growth inhibition above about 70%; inactive means the rest.
Can you answer with just one of these options? TRUE = active, FALSE = inactive

# example entries with known answers
compound	assigned-class
O=C(COc1ccc(Cl)c(Cl)c1)Nc1ccc[n+](Cc2ccc(S(=O)(=O)F)c(Cl)c2)c1	TRUE
N[C@@H](Cc1ccc2oc3cc(=O)c4ccccc4c-3nc2c1)C(=O)O	FALSE
C[Si](C)(C)CN(N=O)C(N)=O	FALSE

Inquiry: Please indicate how the test categorized OC1NC2CC3NC(O)C(O)NC3CC2NC1O (centres undefined) .
Reply text: FALSE

Inquiry: Please indicate how the test categorized `CN(C)C(=O)Sc1c(Cl)cc(Cl)cc1S(=O)(=O)F` .
Reply text: FALSE

Inquiry: Please indicate how the test categorized `CCC[CH2][Sn]([CH2]CCC)[CH2]CCC.CCC[CH2][Sn]([CH2]CCC)[CH2]CCC` .
Reply text: TRUE

---

Assay: NCI Yeast Anticancer Drug Screen. Data for the cln2 rad14 strain (AID 165);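 further: 0% = growth equal to vehicle treated cultures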
Conditions: S. cerevisiae cln2 rad14 strain, at 50.0 µM, stronger effect = higher value
Method: Growth inhibition of yeast strains with defined genetic alterations is measured as a screen for potential anti-cancer activity. Selected strains with alterations in DNA damage repair or cell cycle control were exposed to compounds and growth inhibition was measured relative to vehicle treated controls. The strain used in this assay is cln2 rad14
This is part of a sample that, as a whole, favours compounds with a hit. Of some 79,000 tested, about 15% had one in any assay.
test-readout: growth inhibition (%)
Write down the numeric answer in % and omit the unit.

Before answering, review these 6 worked examples.
molecule	growth inhibition [%]
Cc1cc(S(=O)(=O)F)ccc1O	-42.8
C/C(=N\O)C(CN1CCCCC1)C(c1ccccc1)c1c(O)c2ccccc2oc1=O (stereo unspecified)	28.6
COP(=O)(Oc1ccccc1)Oc1ccccc1	13.1
CC(C)(O)/C=C/C(=O)[C@](C)(O)[C@H]1[C@H](O)C[C@@]2(C)[C@@H]3CC=C4[C@@H](C[C@H](O)C(=O)C4(C)C)[C@]3(C)C(=O)C[C@]12C	0.55
CNC(=O)Oc1cc(C)cc(C(C)C)c1	9.15
CCOP(=O)(O)OCC	-0.25

Inquiry: State, in one line, measured growth inhibition of `COc1ccc2[nH]cc(/C=C\[N+](=O)[O-])c2c1`
Reply text: 2.2

Inquiry: State, in one line, measured growth inhibition of Cc1cn([C@H]2CC3C(CON3C)O2)c(=O)[nH]c1=O (stereo partly specified)
Reply text: -3.55

Inquiry: State, in one line, measured growth inhibition of `CN(C)C(=O)Oc1ccc([N+](=O)[O-])cc1OC(=O)N(C)C`
Reply text: -8.65

Inquiry: State, in one line, measured growth inhibition of `C[CH2][Sn]([CH2]C)([S]c1nc(O)cc(=O)[nH]1)[S]c1nc(O)cc(=O)[nH]1`
Reply text: 7.9

Inquiry: State, in one line, measured growth inhibition of `FC(F)(F)c1ccc(Cl)c(NC2=NCCCS2)c1`
Reply text: 2.05

---

assay: NCI Yeast Anticancer Drug Screen. Data for the mec2-1 strain (AID 157); conditions: S. cerevisiae mec2-1 strain, at 50.0 µM, stronger effect = higher value
This is part of a sample that, as a whole, favours compounds with a hit. Of some 79,000 tested, about 15% had one in any assay.
test-readout: growth inhibition (%)
Write down the numeric answer in % and omit the unit.

molecule	growth inhibition (%)
Cc1cc(C(C)(C)C)ccc1O	-4.1
C1C[OH+]CC[OH+]CC[OH+]CC[OH+]CC[OH+]1.[Cl-].[V]	-6.25
C1=C(c2ccccc2)CCN(C2(c3ccccc3)CCCCC2)C1	0.75
O=[N+]([O-])c1ccc(O)c(C=NCCN=Cc2cc([N+](=O)[O-])ccc2O)c1.[Zn+2]	7
C[C@]12CC[C@@H]3C4=CC(=O)CC[C@@H]4CC[C@H]3[C@@H]1CC[C@@H]2O	-12.1

Inquiry: State, in one line, measured growth inhibition of `O=c1ccc2c(O)c3ccoc3cc2o1`
Reply text: -10

Inquiry: State, in one line, measured growth inhibition of O=C1CC=C2C3CC4N(CCC45c4ccccc4N1C25)C/C3=C\CO (stereo unspecified)
Reply text: -11.7

Inquiry: State, in one line, measured growth inhibition of `CC(C)CNC12CN3CN(CN(C3)C1)C2`
Reply text: -11.2

Inquiry: State, in one line, measured growth inhibition of CC(=O)Nc1nc2c(ncn2C2OCC(OC(C)=O)C(OC(C)=O)C2OC(C)=O)c(=O)[nH]1 (stereo unspecified) (tested in a mixture with another compound)
Reply text: -4.35

Inquiry: State, in one line, measured growth inhibition of CC(C)CC(NC(=O)CF)C(=O)O (stereo unspecified)
Reply text: 0.05

Inquiry: State, in one line, measured growth inhibition of `CC[As](=O)(O)CCCc1ccccc1`
Reply text: 32.9
